Can you tell me IC50 for the items I'm about to list?
Target: human TLR7 (Homo sapiens, UniProt Q9NYK1)
Sequence (Q9NYK1 27-1049): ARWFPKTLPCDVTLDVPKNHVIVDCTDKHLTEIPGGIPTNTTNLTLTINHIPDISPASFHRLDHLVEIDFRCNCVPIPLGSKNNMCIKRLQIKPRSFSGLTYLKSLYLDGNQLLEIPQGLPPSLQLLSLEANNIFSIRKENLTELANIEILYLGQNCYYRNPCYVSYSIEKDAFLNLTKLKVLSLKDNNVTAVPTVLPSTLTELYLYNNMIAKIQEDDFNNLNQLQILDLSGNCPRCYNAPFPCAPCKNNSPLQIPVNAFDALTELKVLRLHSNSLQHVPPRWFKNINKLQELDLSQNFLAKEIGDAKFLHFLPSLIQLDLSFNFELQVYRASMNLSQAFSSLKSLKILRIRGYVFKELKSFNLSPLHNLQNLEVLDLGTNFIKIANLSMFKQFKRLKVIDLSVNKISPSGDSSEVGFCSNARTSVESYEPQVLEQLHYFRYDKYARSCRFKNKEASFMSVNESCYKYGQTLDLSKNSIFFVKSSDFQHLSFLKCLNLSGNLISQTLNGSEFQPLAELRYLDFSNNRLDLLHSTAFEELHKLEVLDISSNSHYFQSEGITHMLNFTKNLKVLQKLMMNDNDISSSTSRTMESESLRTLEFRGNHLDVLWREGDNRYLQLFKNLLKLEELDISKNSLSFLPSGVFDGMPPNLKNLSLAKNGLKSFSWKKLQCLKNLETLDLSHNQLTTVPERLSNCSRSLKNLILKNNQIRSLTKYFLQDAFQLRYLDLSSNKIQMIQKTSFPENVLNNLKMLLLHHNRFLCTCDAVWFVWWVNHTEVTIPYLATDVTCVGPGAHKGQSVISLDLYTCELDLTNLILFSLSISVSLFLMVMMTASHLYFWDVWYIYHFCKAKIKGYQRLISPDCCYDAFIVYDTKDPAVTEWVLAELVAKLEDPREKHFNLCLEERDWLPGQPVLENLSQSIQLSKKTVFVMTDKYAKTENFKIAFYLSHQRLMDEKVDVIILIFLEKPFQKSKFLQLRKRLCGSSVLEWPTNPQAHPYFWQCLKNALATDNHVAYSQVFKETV
Experiment: TLR7 inhibition reporter assay (HEK-Blue cells, SEAP reporter)
Settings: HEK-Blue cells overexpressing human TLR7; stimulated with gardiquimod 7.5 μM; SEAP after 22 hour incubation
Give bare numbers, in µM.

Here are 4 compounds together with their reported answers.
CC(C)N1CCN(c2ccc(-c3cnc4cc(-c5ccc(S(C)(=O)=O)cc5)n(C)c4c3)cc2)[C@@H](C)C1
4.8
CC(C)N1CCN(c2ccc(-c3cnc4cc(-c5cccc(S(=O)(=O)N(C)C)c5)n(C)c4c3)cc2)CC1
8.1
COc1ccc(-c2cc3ncc(-c4ccc(N5CCN(CCC(C)(C)O)CC5)cc4)cc3n2C)cc1OC
4.8
Cn1c(-c2ccc(S(C)(=O)=O)cc2)cc2ncc(-c3ccc(N4CCNCC4)cc3)cc21
2

Continue with the next compound.
QUERY: Given CC(C)N1CCN(c2ccc(-c3cnc4cc(-c5ccc(S(C)(=O)=O)cc5)n(C)c4c3)cc2)CC1 , respond with its IC50.
RESULT: 2.7

====

Can you tell me pIC50 for the items I'm about to list?
Molecular target: human TLR9 (Homo sapiens)
Sequence (Q9NR96 26-1032): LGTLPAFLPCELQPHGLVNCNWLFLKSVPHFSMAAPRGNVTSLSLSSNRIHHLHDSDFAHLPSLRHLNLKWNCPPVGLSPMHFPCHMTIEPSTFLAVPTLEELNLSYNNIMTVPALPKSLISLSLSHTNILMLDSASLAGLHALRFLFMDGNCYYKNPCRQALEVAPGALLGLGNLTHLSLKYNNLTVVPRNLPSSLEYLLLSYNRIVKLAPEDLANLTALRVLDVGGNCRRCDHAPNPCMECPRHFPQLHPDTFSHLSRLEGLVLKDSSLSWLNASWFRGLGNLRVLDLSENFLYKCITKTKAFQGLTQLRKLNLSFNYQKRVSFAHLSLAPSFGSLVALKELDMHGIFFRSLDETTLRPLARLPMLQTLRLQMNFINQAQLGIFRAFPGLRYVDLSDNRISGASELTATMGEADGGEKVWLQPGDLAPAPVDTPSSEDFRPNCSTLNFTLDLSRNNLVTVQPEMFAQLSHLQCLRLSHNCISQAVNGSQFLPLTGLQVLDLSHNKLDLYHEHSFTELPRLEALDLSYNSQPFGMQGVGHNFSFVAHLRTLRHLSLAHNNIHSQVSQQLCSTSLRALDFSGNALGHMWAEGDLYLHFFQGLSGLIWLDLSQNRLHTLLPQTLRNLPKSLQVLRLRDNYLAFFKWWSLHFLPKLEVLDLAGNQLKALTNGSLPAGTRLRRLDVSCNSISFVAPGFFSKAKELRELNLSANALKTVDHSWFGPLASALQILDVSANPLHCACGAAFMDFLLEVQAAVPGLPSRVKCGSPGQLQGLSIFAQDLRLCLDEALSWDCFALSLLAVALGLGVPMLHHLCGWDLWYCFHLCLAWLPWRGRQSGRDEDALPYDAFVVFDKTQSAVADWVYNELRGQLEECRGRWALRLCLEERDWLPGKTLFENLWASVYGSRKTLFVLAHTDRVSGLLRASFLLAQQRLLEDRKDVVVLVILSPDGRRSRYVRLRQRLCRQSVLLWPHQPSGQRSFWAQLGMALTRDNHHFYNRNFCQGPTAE
Experiment: TLR9 inhibition reporter assay (HEK-Blue cells, SEAP reporter)
Settings: HEK-Blue cells overexpressing human TLR9; stimulated with ODN2006 5 nM; SEAP after 22 hour incubation
Text: TLR7/8/9 Inhibition Reporter Assays HEK-Blue™-cells (Invivogen) overexpressing human TLR7, TLR8 or TLR9 receptors were used for screening inhibitors of these receptors using an inducible SEAP (secreted embryonic alkaline phosphatase) reporter gene under the control of the IFN-β minimal promoter fused to five NF-κB and AP-1-binding sites. […]
Numbers only, as −log10 of the molar value.

Here are 4 compounds together with their reported answers.
CC(C)N1CCN(c2ccc(-c3cnc4cc(-c5ccc(S(C)(=O)=O)cc5)n(C)c4c3)cc2)CC1
6.86
CN(C)S(=O)(=O)c1cccc(-c2cc3ncc(-c4ccc(N5CCN(C6CC6)CC5)cc4)cc3n2C)c1
6.15
CC(C)N1C[C@H](C)N(c2ccc(-c3cnc4cc(-c5ccc(S(C)(=O)=O)cc5)n(C)c4c3)cc2)[C@@H](C)C1
6.32
CC(C)CN1[C@@H]2CC[C@H]1CC(N1CCC(c3cnc4cc(-c5ccc(S(C)(=O)=O)cc5)n(C)c4c3)CC1)C2 (some centres unmarked)
7.66

QUERY: Given Cn1c(-c2ccc(S(C)(=O)=O)cc2)cc2ncc(-c3ccc(CN4CCN(CC(C)(C)O)CC4)cc3)cc21 , respond with its pIC50.
RESULT: 6.69

====

molecular target: human TLR8 (Homo sapiens, UniProt Q9NR97); construct: host or cells: HEK-Blue cells (HEK293-derived reporter line); assay: TLR8 inhibition reporter assay (HEK-Blue cells, SEAP reporter); format: cell-based; conditions: HEK-Blue cells overexpressing human TLR8; stimulated with R848 15.9 μM; SEAP after 22 hour incubation
Sequence (Q9NR97 27-1041): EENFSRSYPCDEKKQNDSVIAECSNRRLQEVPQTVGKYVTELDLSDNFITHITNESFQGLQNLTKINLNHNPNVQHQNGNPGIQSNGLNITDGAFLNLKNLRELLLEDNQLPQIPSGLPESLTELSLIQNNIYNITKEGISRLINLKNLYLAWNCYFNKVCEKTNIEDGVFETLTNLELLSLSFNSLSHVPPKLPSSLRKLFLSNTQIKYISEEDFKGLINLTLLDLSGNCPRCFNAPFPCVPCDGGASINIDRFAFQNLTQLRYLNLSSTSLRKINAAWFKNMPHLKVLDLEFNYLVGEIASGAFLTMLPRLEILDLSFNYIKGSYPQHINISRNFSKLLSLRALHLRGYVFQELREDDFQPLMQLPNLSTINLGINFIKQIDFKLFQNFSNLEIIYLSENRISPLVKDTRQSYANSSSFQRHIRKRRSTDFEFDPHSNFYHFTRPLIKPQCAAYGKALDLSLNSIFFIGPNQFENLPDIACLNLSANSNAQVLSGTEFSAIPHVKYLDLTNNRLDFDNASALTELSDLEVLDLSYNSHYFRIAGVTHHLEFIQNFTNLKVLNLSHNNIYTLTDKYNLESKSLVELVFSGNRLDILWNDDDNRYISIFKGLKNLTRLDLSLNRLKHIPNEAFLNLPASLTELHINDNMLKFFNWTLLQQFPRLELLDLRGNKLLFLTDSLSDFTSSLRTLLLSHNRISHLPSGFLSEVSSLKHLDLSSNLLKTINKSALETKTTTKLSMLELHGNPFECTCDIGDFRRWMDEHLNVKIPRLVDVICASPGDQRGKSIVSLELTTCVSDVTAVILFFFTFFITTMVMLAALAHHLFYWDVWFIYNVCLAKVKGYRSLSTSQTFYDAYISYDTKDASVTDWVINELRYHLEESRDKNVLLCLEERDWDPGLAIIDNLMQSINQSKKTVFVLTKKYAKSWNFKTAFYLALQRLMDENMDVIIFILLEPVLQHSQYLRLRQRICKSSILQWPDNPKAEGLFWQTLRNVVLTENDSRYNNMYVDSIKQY
outcome-measure: IC50

COc1cc(-c2cc3ncc(-c4ccc(N5CCN(C(C)C)CC5)cc4)cc3n2C)ccc1C#N
> 25 µM
CC(C)CN1[C@@H]2CC[C@H]1C[C@@H](N1CCC(c3cnc4cc(-c5ccc(S(=O)(=O)C6CC6)cc5)n(C)c4c3)CC1)C2
> 50 µM

For each of the items listed, what is its IC50?
1. CN(C)C1CCN(Cc2ccc(-c3cnc4cc(-c5ccc(S(C)(=O)=O)cc5)n(C)c4c3)cc2)CC1
2. CC(C)N1CCN(c2ccc(-c3cnc4cc(-c5ccc(S(C)(=O)=O)cc5)[nH]c4c3)cc2)CC1

RESULT:
1. > 50 µM
2. > 50 µM

QUERY: Given COc1ccc(-c2cc3ncc(-c4ccc(N5CCN(C(C)C)CC5)cc4)cc3n2C)cc1C#N , respond with its IC50.
RESULT: > 25 µM

====

biological target: human TLR8 (Homo sapiens, UniProt Q9NR97); test: TLR8 inhibition reporter assay (HEK-Blue cells, SEAP reporter); conditions: HEK-Blue cells overexpressing human TLR8; stimulated with R848 15.9 μM; SEAP after 22 hour incubation
pIC50: −log10 of the molar value.
The threshold is inclusive: pIC50 of exactly 5 counts as Condition met; values below receive Condition not met.

Sample answers from the record:
CC(C)CN1[C@@H]2CC[C@H]1CC(N1CCC(c3cnc4cc(-c5ccc(S(C)(=O)=O)cc5)n(C)c4c3)CC1)C2 (stereo partly shown)
Condition not met
CC(C)CN1CCN(c2ccc(-c3cnc4cc(-c5ccc(S(C)(=O)=O)cc5)[nH]c4c3)cc2)CC1
Condition not met
CC(C)N1[C@H](C)CN(c2ccc(-c3cnc4cc(-c5ccc(S(C)(=O)=O)cc5)n(C)c4c3)cc2)C[C@@H]1C
Condition not met

QUERY: Item COc1ccc(-c2cc3ncc(-c4ccc(N5CCN(CC6CC6)CC5)cc4)cc3n2C)cc1OC with pIC50 of 5 or above?
RESULT: Condition met

====

Can you tell me pIC50 for the items I'm about to list?
Molecular target: human TLR7 (Homo sapiens, UniProt Q9NYK1)
Sequence (Q9NYK1 27-1049): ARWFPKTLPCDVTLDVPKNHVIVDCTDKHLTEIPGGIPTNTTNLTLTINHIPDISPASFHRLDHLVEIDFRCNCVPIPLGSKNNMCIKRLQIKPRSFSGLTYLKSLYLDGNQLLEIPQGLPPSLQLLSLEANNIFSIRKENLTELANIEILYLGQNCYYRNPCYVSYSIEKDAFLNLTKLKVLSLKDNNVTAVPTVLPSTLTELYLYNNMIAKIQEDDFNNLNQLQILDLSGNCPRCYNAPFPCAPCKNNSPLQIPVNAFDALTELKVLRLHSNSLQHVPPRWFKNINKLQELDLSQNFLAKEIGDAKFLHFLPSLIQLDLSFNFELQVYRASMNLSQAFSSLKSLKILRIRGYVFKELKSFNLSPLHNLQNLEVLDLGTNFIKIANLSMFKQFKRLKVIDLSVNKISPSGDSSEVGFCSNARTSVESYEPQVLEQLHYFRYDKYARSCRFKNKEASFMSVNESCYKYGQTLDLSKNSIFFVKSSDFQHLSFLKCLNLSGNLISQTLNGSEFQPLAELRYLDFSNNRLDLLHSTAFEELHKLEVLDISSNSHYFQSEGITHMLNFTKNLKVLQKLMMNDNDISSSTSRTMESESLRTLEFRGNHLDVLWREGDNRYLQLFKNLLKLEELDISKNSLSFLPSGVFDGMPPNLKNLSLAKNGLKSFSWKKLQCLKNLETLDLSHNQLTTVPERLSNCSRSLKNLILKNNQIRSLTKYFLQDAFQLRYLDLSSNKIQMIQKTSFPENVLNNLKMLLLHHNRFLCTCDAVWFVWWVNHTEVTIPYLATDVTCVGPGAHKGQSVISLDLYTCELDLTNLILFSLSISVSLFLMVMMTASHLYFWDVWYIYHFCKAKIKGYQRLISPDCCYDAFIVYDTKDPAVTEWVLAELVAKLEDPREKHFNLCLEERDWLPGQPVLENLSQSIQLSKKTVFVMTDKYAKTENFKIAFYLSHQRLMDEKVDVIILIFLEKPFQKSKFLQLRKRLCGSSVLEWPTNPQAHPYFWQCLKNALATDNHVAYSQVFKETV
Experiment: TLR7 inhibition reporter assay (HEK-Blue cells, SEAP reporter)
Settings: HEK-Blue cells overexpressing human TLR7; stimulated with gardiquimod 7.5 μM; SEAP after 22 hour incubation
pIC50: −log10 of the molar value.

Here are 6 compounds together with their reported answers.
COc1cc(-c2cc3ncc(-c4ccc(N5CCN(C(C)C)CC5)cc4)cc3n2C)ccc1C#N
< 4.60
COc1ccc(-c2cc3ncc(-c4ccc(N5CCN(C(C)C)CC5)cc4)cc3n2C)cc1C#N
< 4.60
CCN1CCN(Cc2ccc(-c3cnc4cc(-c5ccc(S(C)(=O)=O)cc5)n(C)c4c3)cc2)CC1
< 4.30
COc1ccc(-c2cc3ccc(-c4ccc(N5CCN(C(C)C)CC5)cc4)nc3n2C)cc1OC
≤ 4.30
CC(C)N1[C@H](C)CN(c2ccc(-c3cnc4cc(-c5ccc(S(C)(=O)=O)cc5)n(C)c4c3)cc2)C[C@@H]1C
< 4.30
Cn1c(-c2ccc(S(C)(=O)=O)cc2F)cc2ncc(-c3ccc(N4CCN5CCCC5C4)cc3)cc21 (stereo not shown)
< 4.30

Continue with the next compound.
QUERY: Report value only: pIC50, human TLR7 (Homo sapiens, UniProt Q9NYK1), CC(C)N1C2CCC1CN(c1ccc(-c3cnc4cc(-c5ccc(S(C)(=O)=O)cc5F)n(C)c4c3)cc1)C2
RESULT: < 4.30
